# System name: human A1 AR (Homo sapiens, UniProt P30542)
# Construct: expressed in transfected cells; host or cells: CHO cells
# Sequence (P30542 whole entry): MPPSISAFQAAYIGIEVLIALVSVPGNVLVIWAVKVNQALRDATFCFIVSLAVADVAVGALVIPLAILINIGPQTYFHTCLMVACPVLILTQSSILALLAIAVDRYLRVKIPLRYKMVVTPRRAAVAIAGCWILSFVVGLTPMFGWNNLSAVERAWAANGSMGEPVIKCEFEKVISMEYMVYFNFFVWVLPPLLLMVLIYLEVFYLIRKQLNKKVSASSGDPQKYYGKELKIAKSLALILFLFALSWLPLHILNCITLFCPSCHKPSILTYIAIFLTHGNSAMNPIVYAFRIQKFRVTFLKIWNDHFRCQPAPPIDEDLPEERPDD
# Test protocol: Radioligand binding assay at human A1 AR vs. [^3H]CCPA
# Condition details: human (h); CHO cell membranes; n = 3
Listed next: entries and their corresponding Ki.
The response must be a number in nM with no trailing unit.

Solved entries:
- CCn1c(=O)c2c(nc3n2CCN(Cc2cccc(C(F)(F)F)c2)C3)n(CC)c1=O [Compound 15g]: 84.8
- CCn1c(=O)c2c(nc3n2CCN(Cc2cccc(F)c2)C3)n(CC)c1=O [Compound 15b]: 207
- CCn1c(=O)c2c(nc3n2CCN(Cc2cccc(Cl)c2)C3)n(CC)c1=O [Compound 15c]: 128
- CCn1c(=O)c2c(nc3n2CCN(Cc2ccc(F)c(Br)c2)C3)n(CC)c1=O [Compound 15k]: 362
- CCn1c(=O)c2c(nc3n2CCN(Cc2ccc(Cl)c(C(F)(F)F)c2)C3)n(CC)c1=O [Compound 15p]: 129

Ask: # value lookup — system human A1 AR (Homo sapiens, UniProt P30542), readout Ki, item CCn1c(=O)c2c(nc3n2CCN(Cc2cc(F)c(F)c(F)c2)C3)n(CC)c1=O [Compound 15r]
Result: 1190
